tested on: NCI-H23 lung; experiment: NCI-60 one-dose screen, 48 h; conditions: 10 µM unless noted
About 83,000 compounds went through this panel and 20% of them were active in at least one assay; those are over-represented in the sample as a whole. Activity calls are given as the source filed them. How the source made its calls: active means growth percent below 10; inactive means the rest.
Hello, when you answer, please use one of the following outcomes: active, inactive

A selection of reference data follows.
compound=CCN(CC)c1ccc(/C=C/C(=O)c2cccc(NS(C)(=O)=O)c2)cc1 group=inactive
compound="COc1cc(C2CC(C3C(=O)N(C)C(=O)N(C)C3=O)=NN2c2cc(Cl)cc(Cl)c2)cc(OC)c1OC (configuration not stated)" group=inactive
compound="CCCCCCC(CC#N)(CCC)CCCC (configuration not stated)" group=inactive

Data request: Please indicate how the test categorized N#Cc1c(NC(=O)c2ccco2)[n+]([O-])c2cc(Cl)c(Cl)cc2[n+]1[O-] .
Data returned: inactive

Data request: Please indicate how the test categorized Cc1cc(C)nc(NS(=O)(=O)c2ccc(Nc3nc4nc(SCc5ccccc5)nc(-c5ccc(O)cc5)c4c(=O)[nH]3)cc2)n1 .
Data returned: inactive

Data request: Please indicate how the test categorized c1ccc(-c2n(Cc3ccc4ccccc4c3)cc[n+]2Cc2ccc3ccccc3c2)cc1 .
Data returned: active

Data request: Please indicate how the test categorized NC(=O)c1cc(Br)cc(Br)c1NS(=O)(=O)c1ccccc1 .
Data returned: inactive

Data request: Please indicate how the test categorized COc1cc(/C=C/c2cc(/C=C/c3ccc(O)c(OC)c3)n(C(=O)c3ccc(Cl)cc3)n2)ccc1O .
Data returned: inactive
